Biological target: Coagulation factor XII (Homo sapiens)
Assay: blockers of FXIIa protease activity – biochemical, pooled compound mixtures, fluorogenic substrate, primary screen (AID 684);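 further: 0% = enzyme without compound and 100% = no enzyme blank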
Settings: purified FXIIa, at 5 µM
Out of some 62,000 compounds screened, about 95 (0.2%) were called active. No stated cut-off is given here; in the data, active means inhibition above about 20% (passing the limit was not always enough); inactive means the rest. This excerpt belongs to a sample that is enriched for actives.
Bench note: report the call from active, inactive

What outcome does the record of this test show for O=C1CC(Cc2ccccc2)C(=O)N1c1ccc(Cl)cn1 (configuration not stated) ?
inactive

What outcome does the record of this test show for COc1ccc(S(=O)(=O)N2CCCC(C(=O)Nc3ccc(NC(=O)c4ccccn4)cc3)C2)cc1 (configuration not stated) ?
inactive

What outcome does the record of this test show for `CC(=O)Cc1nsc(NC(=O)c2csc3c2CCCC3)n1` ?
inactive

What outcome does the record of this test show for `Cc1noc(C)c1S(=O)(=O)N(CC(=O)NCc1ccc(Cl)cc1)c1ccc2c(c1)OCO2` ?
inactive

What outcome does the record of this test show for `CCOC(=O)c1cc2c(n(-c3ccc(C)cc3)c1=O)CCCC2=O` ?
inactive

What outcome does the record of this test show for O=C1Nc2ccccc2C12Nc1ccccc1S2 (configuration not stated) ?
inactive

What outcome does the record of this test show for `O=C(NCCCNCc1ccccc1)c1ccc(/C=N/O)nc1` ?
inactive

What outcome does the record of this test show for `Cc1csc(NC(=O)CN2CCCCCC2)n1` ?
inactive

What outcome does the record of this test show for CC(NC(=O)c1ccc(Cl)cc1)C(=O)N1CCCCC1 (configuration not stated) ?
inactive

What outcome does the record of this test show for `C/C(=C\C(=O)c1ccccc1)Nc1cccc(O)c1` ?
inactive

What outcome does the record of this test show for `COC(=O)c1oc2ccc(Br)cc2c1NC(C)=O` ?
inactive

What outcome does the record of this test show for `CCOC(=O)N1CCC(NC(=O)c2cnn3ccccc23)CC1` ?
inactive

What outcome does the record of this test show for `CCS(=O)(=O)n1nc(-c2ccccc2)nc1SCc1ccccc1` ?
inactive

What outcome does the record of this test show for `C=CCn1c(=O)c2ccccc2n2c(SCC(=O)N3CCCc4ccccc43)nnc12` ?
inactive

What outcome does the record of this test show for `C=CCNC(=O)CCCC(=O)NCC=C` ?
inactive

What outcome does the record of this test show for CCN1CCCC1CNC(=O)Cn1cnc2ccc(S(=O)(=O)N3CCC(C)CC3)cc2c1=O (configuration not stated) ?
inactive

What outcome does the record of this test show for `COc1cccc(-c2nnc(N(C)C(=O)c3ccno3)s2)c1` ?
inactive

What outcome does the record of this test show for `Cc1ccc(-n2ncc3c(=O)[nH]cnc32)c(C)c1` ?
active

What outcome does the record of this test show for `CCOC(=O)c1cccc(NC(=O)CCn2nnc3ccccc32)c1` ?
inactive

What outcome does the record of this test show for `COc1ccccc1NC(=O)c1ccc(C)s1` ?
inactive

What outcome does the record of this test show for `CCOC(=O)N1CCN(C(=O)Cc2ccc(-n3c(=S)[nH]c4ccccc4c3=O)cc2)CC1` ?
inactive

What outcome does the record of this test show for `Cc1ccc(-n2ncc3c(N4CCN(c5ccc(F)cc5)CC4)ncnc32)c(C)c1` ?
inactive

What outcome does the record of this test show for `COc1ccccc1N1CCN(C(=O)c2c(-c3c(Cl)cccc3Cl)noc2C)CC1` ?
inactive

What outcome does the record of this test show for `COCCNC(=O)COc1ccc(C)c(C)c1` ?
inactive

What outcome does the record of this test show for `CCOC(=O)N1CCN(S(=O)(=O)c2cc(Br)cc3c2N(C(=O)C2CC2)CC3)CC1` ?
inactive

What outcome does the record of this test show for `CCn1c(SCC(=O)c2ccc(Cl)s2)nnc1-c1cccs1` ?
inactive

What outcome does the record of this test show for `O=C(/C=N/O)Nc1ccccc1` ?
inactive

What outcome does the record of this test show for `COCCNC(=O)CSc1nc2c(n1-c1ccccc1)CCCC2` ?
inactive

What outcome does the record of this test show for `CCOCC(=O)NCc1ccc2c(c1)cc(C)n2C` ?
inactive

What outcome does the record of this test show for `COC(=O)CSc1nc(C2CC2)nc2ccccc12` ?
inactive

What outcome does the record of this test show for `COCCNC(=O)c1ccccc1-c1nc(-c2ccccc2Cl)no1` ?
inactive

What outcome does the record of this test show for CCCNC(=O)C1CC(=O)N(c2ccc(OCC(=O)Nc3cccc(C)c3C)cc2)C1 (configuration not stated) ?
inactive

What outcome does the record of this test show for `CCN1C(=O)/C(=C\N2CCN(c3ccccc3)CC2)SC1=S` ?
inactive

What outcome does the record of this test show for Cc1cc(=O)n2nc(N3CCCC3C(=O)NCCCN3CC(C)CC(C)C3)sc2n1 (configuration not stated) ?
inactive

What outcome does the record of this test show for `COc1ccc2c3c(c(=O)oc2c1OCC(=O)C(C)(C)C)CCCC3` ?
inactive

What outcome does the record of this test show for CCCS(=O)(=O)N1CCCC(C(=O)NCCN2CCCCC2C)C1 (configuration not stated) ?
inactive

What outcome does the record of this test show for `CCOC(=O)c1sc(NC(=S)n2cc(C)cn2)c(C(=O)OCC)c1C` ?
inactive

What outcome does the record of this test show for `O=C(O)c1ccc(COCC(F)(F)F)cc1` ?
inactive

What outcome does the record of this test show for `O=C(c1cc(-c2ccc(O)cc2)on1)N1CCCc2ccccc21` ?
inactive

What outcome does the record of this test show for `CC(=O)Nc1ccn(Cc2c(F)cccc2Cl)n1` ?
inactive

What outcome does the record of this test show for COc1ccc(N2C(=O)C3CCCN3C2c2cc(OC)c(OC)cc2OC)cc1 (configuration not stated) ?
inactive

What outcome does the record of this test show for `COc1ccc(OC)c2[nH]c(=O)c(CCNC(=O)C(C)(C)C)cc12` ?
inactive

What outcome does the record of this test show for `Cc1ccc2cccc(O)c2[n+]1[O-]` ?
inactive

What outcome does the record of this test show for CCOC(=O)c1ccc(N2C(=O)CC(Sc3nc(O)c(CC)c(=O)[nH]3)C2=O)cc1 (configuration not stated) ?
inactive

What outcome does the record of this test show for COC(=O)C1=C(C)Nc2ncnn2C1c1ccco1 (configuration not stated) ?
inactive

What outcome does the record of this test show for `CC(=O)Nc1ccc(S(=O)(=O)N2CCC(N(C)CCC(C)C)CC2)cc1` ?
inactive

What outcome does the record of this test show for COc1ccc(CC(NC(C)=O)C(=O)NC2CCN(C(=O)Nc3ccc(C#N)cc3)CC2)cc1OC (configuration not stated) ?
inactive

----------
Target: Coagulation factor XII (Homo sapiens)
Assay: blockers of FXIIa protease activity – biochemical, pooled compound mixtures, fluorogenic substrate, primary screen (AID 684);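 further: 0% = enzyme without compound and 100% = no enzyme blank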
Settings: purified FXIIa, at 5 µM, active compounds read high
Among all 62,000 compounds or so, about 95 (0.2%) were called active. For the sample, actives were picked, then their nearest neighbours and some compounds at random.
measurement_name: inhibition (%)
// note: answer is a bare numeric in %

Fill in reported inhibition for this entry: `O=C(CNC(=O)c1ccc(Cl)cc1Cl)NCC(=O)Nc1ccccc1N1CCOCC1`
6.48

Fill in reported inhibition for this entry: COc1ccc(N2CC(C)Cn3c2nc2c3c(=O)n(Cc3ccccc3F)c(=O)n2C)c(OC)c1 (stereo unspecified)
10.8

Fill in reported inhibition for this entry: CCCC(C)n1[nH]c(=O)c2c(C)cc(C)nc21 (stereo unspecified)
3.26

Fill in reported inhibition for this entry: `Cc1ccc(S(=O)(=O)Nc2ccc3ncccc3c2)cc1`
-13.2

Fill in reported inhibition for this entry: `O=C(CN1C(=O)COc2ccccc21)NCCN1CCc2ccccc2C1`
2.87

Fill in reported inhibition for this entry: CCN(CC)P(=O)(C(NC(=O)OC)C(F)(F)C(F)(F)C(F)(F)C(F)F)N(CC)CC (stereo unspecified)
0.97

Fill in reported inhibition for this entry: CCCCC(=O)N(c1ccc(OC)cc1)C1C=CS(=O)(=O)C1 (stereo unspecified)
4.62

Fill in reported inhibition for this entry: `c1csc(CN2CCN(Cc3cccs3)C2c2cccs2)c1`
-13.3

Fill in reported inhibition for this entry: `CCOC(=O)Cc1c(C)nc2c(C#N)c(C)nn2c1C`
-16

Fill in reported inhibition for this entry: `OCCNCCCCOc1ccccc1F`
-11.6

Fill in reported inhibition for this entry: `CCCN(c1ccc(C(C)C)cc1)S(=O)(=O)c1c(C)[nH]c(=O)[nH]c1=O`
-19
